# test-target: Human CypD (Homo sapiens (Human), UniProt P30405)
# Sequence (P30405 30-207): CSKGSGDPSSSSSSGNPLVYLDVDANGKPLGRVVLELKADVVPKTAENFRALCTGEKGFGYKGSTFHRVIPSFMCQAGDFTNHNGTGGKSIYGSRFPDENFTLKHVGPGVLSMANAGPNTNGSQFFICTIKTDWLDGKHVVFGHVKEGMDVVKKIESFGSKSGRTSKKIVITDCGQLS
# protocol-summary: Cyclophilin peptidyl-prolyl isomerase functional assay (PPIase), CypD
# Format: biochemical
# condition-context: human recombinant enzyme, 10° C.; read-out: Inhibition (Ki, nM) Human CypD
observed-property: Ki
Answer with the figure and its unit, nothing else.

In: Quote Ki with test system Human CypD (Homo sapiens (Human), UniProt P30405) for "C/C=C/C[C@@H](C)[C@@H](O)[C@H]1C(=O)N[C@@H](CC)C(=O)N(C)[C@H](OCC2(N(C)C)CC2)C(=O)N(C)[C@@H](CC(C)C)C(=O)N[C@@H](C(C)C)C(=O)N(C)[C@@H](CC(C)C)C(=O)N[C@@H](C)C(=O)N[C@H](C)C(=O)N(C)[C@@H](CC(C)C)C(=O)N(C)[C@@H](CC(C)C)C(=O)N(C)[C@@H](C(C)C)C(=O)N1C"
Out: 6 nM

====

# Tested on: permeabilized HepG2
# protocol-summary: Calcium retention capacity (CRC) assay in permeabilized HepG2
# Format: cell-based
# condition-context: Homo sapiens; permeabilized HepG2; area under the curve; read-out: Calcium Retention Capacity EC50
Starred links: 1 amine or outer side, 2 acyl side, 3 side chain; linkers in the order of their positions; H or OH if unused. Non-standard residues stand in square brackets, D forms with d. Residues, ends and D or L forms follow the SMILES beside them. ξ: configuration not given here. NMeBmt(3-oxo) = C/C=C/C[C@@H](C)C(=O)[C@H](NC)C(=O)O; MeBmt = C/C=C/C[C@@H](C)[C@@H](O)[C@H](NC)C(=O)O; ξThr(3S) = C[C@H](O[*:3])C(N[*:1])C(=O)[*:2]; X1 = CN([C@H](OCCN1CCOCC1)C(=O)[*:2])[*:1]; X2 = CN(C)CCO[C@H](C(=O)[*:2])N(C)[*:1]; NMeL = CN[C@@H](CC(C)C)C(=O)O; NMeV = CN[C@H](C(=O)O)C(C)C; Nva = CCC[C@H](N)C(=O)O
Labelling: EC50 reported below 0.9 µM becomes 1 (yes); at or above becomes 0 (no).

In: Does the reported EC50 of "C/C=C/C[C@@H](C)[C@@H](O)[C@H]1C(=O)N[C@@H](CC)C(=O)N(C)[C@H](OCC(C)(C)N(C)C)C(=O)N(C)[C@@H](CC(C)C)C(=O)N[C@@H](C(C)C)C(=O)N(C)[C@@H](CC(C)C)C(=O)N[C@@H](C)C(=O)N[C@H](C)C(=O)N(C)[C@@H](CC(C)C)C(=O)N(C)[C@@H](CC(C)C)C(=O)N(C)[C@@H](C(C)C)C(=O)N1C" stay below 0.9 µM?
Out: 0 (no)

In: Does the reported EC50 of C/C=C/C[C@@H](C)[C@@H](O)[C@H]1C(=O)N[C@@H](C(C)C)C(=O)N(C)[C@H](OCCN2CCOCC2)C(=O)N(C)[C@@H](CC(C)C)C(=O)N[C@@H](C(C)C)C(=O)N(C)[C@@H](CC(C)C)C(=O)N[C@@H](C)C(=O)N[C@H](C)C(=O)N(C)[C@@H](CC(C)C)C(=O)N(C)[C@@H](CC(C)C)C(=O)N(C)[C@@H](C(C)C)C(=O)N1C [Compound 4] (cyclo(A[dA][NMeL][NMeL][NMeV][MeBmt]V[X1][NMeL]V[NMeL])) stay below 0.9 µM?
Out: 1 (yes)

In: Does the reported EC50 of C/C=C/C[C@@H](C)[C@@H](O)[C@H]1C(=O)N[C@@H](C(C)C)C(=O)N(C)[C@H](OCCN(C)C)C(=O)N(C)[C@@H](CC(C)C)C(=O)N[C@@H](C(C)C)C(=O)N(C)[C@@H](CC(C)C)C(=O)N[C@@H](C)C(=O)N[C@H](C)C(=O)N(C)[C@@H](CC(C)C)C(=O)N(C)[C@@H](CC(C)C)C(=O)N(C)[C@@H](C(C)C)C(=O)N1C [Compound 3] (cyclo(A[dA][NMeL][NMeL][NMeV][MeBmt]V[X2][NMeL]V[NMeL])) stay below 0.9 µM?
Out: 0 (no)

In: Does the reported EC50 of C/C=C/C[C@@H](C)[C@@H](O)[C@H]1C(=O)N[C@@H](CCC)C(=O)N(C)[C@H](OCCN2CCOCC2)C(=O)N(C)[C@@H](CC(C)C)C(=O)N[C@@H](C(C)C)C(=O)N(C)[C@@H](CC(C)C)C(=O)N[C@@H](C)C(=O)N[C@H](C)C(=O)N(C)[C@@H](CC(C)C)C(=O)N(C)[C@@H](CC(C)C)C(=O)N(C)[C@@H](C(C)C)C(=O)N1C [Compound 8] (cyclo(A[dA][NMeL][NMeL][NMeV][MeBmt][Nva][X1][NMeL]V[NMeL])) stay below 0.9 µM?
Out: 0 (no)

In: Does the reported EC50 of C/C=C/C[C@@H](C)C(=O)[C@H]1C(=O)N[C@@H](C(C)C)C(=O)N(C)[C@H](OCCN(C)C)C(=O)N(C)[C@@H](CC(C)C)C(=O)N[C@@H](C(C)C)C(=O)N(C)[C@@H](CC(C)C)C(=O)N[C@@H](C)C(=O)N[C@H](C)C(=O)N(C)[C@@H](CC(C)C)C(=O)N(C)[C@@H](CC(C)C)C(=O)N(C)[C@@H](C(C)C)C(=O)N1C [Compound 5] (cyclo(A[dA][NMeL][NMeL][NMeV][NMeBmt(3-oxo)]V[X2][NMeL]V[NMeL])) stay below 0.9 µM?
Out: 0 (no)

In: Does the reported EC50 of "C/C=C/C[C@@H](C)[C@@H](O)[C@H]1C(=O)N[C@@H](CC)C(=O)N(C)[C@H](OCC/N=C/N(C)C)C(=O)N(C)[C@@H](CC(C)C)C(=O)N[C@@H](C(C)C)C(=O)N(C)[C@@H](CC(C)C)C(=O)N[C@@H](C)C(=O)N[C@H](C)C(=O)N(C)[C@@H](CC(C)C)C(=O)N(C)[C@@H](CC(C)C)C(=O)N(C)[C@@H](C(C)C)C(=O)N1C" stay below 0.9 µM?
Out: 0 (no)

In: Does the reported EC50 of C/C=C/C[C@@H](C)[C@@H](O)[C@H]1C(=O)N[C@@H](CCC)C(=O)N(C)[C@H](OCCN(C)C)C(=O)N(C)[C@@H](CC(C)C)C(=O)N[C@@H](C(C)C)C(=O)N(C)[C@@H](CC(C)C)C(=O)N[C@@H](C)C(=O)N[C@H](C)C(=O)N(C)[C@@H](CC(C)C)C(=O)N(C)[C@@H](CC(C)C)C(=O)N(C)[C@@H](C(C)C)C(=O)N1C [Compound 7] (cyclo(A[dA][NMeL][NMeL][NMeV][MeBmt][Nva][X2][NMeL]V[NMeL])) stay below 0.9 µM?
Out: 0 (no)

In: Does the reported EC50 of C/C=C/C[C@@H](C)[C@@H](O)[C@H]1C(=O)NC([C@H](C)O)C(=O)N(C)[C@H](OCCN(C)C)C(=O)N(C)[C@@H](CC(C)C)C(=O)N[C@@H](C(C)C)C(=O)N(C)[C@@H](CC(C)C)C(=O)N[C@@H](C)C(=O)N[C@H](C)C(=O)N(C)[C@@H](CC(C)C)C(=O)N(C)[C@@H](CC(C)C)C(=O)N(C)[C@@H](C(C)C)C(=O)N1C (stereo partly drawn) [Compound 2] (cyclo(A[dA][NMeL][NMeL][NMeV][MeBmt][ξThr(3S)][X2][NMeL]V[NMeL])) stay below 0.9 µM?
Out: 0 (no)

In: Does the reported EC50 of "C/C=C/C[C@@H](C)[C@@H](O)[C@H]1C(=O)N[C@@H](CC)C(=O)N(C)[C@H](OCC/N=C(\C)N(C)C)C(=O)N(C)[C@@H](CC(C)C)C(=O)N[C@@H](C(C)C)C(=O)N(C)[C@@H](CC(C)C)C(=O)N[C@@H](C)C(=O)N[C@H](C)C(=O)N(C)[C@@H](CC(C)C)C(=O)N(C)[C@@H](CC(C)C)C(=O)N(C)[C@@H](C(C)C)C(=O)N1C" stay below 0.9 µM?
Out: 1 (yes)

In: Does the reported EC50 of C/C=C/C[C@@H](C)C(=O)[C@H]1C(=O)N[C@@H](C(C)C)C(=O)N(C)[C@H](OCCN2CCOCC2)C(=O)N(C)[C@@H](CC(C)C)C(=O)N[C@@H](C(C)C)C(=O)N(C)[C@@H](CC(C)C)C(=O)N[C@@H](C)C(=O)N[C@H](C)C(=O)N(C)[C@@H](CC(C)C)C(=O)N(C)[C@@H](CC(C)C)C(=O)N(C)[C@@H](C(C)C)C(=O)N1C [Compound 6] (cyclo(A[dA][NMeL][NMeL][NMeV][NMeBmt(3-oxo)]V[X1][NMeL]V[NMeL])) stay below 0.9 µM?
Out: 0 (no)
